# Target System: hGLP-1R (Homo sapiens, UniProt P43220)
# Sequence (P43220 24-463): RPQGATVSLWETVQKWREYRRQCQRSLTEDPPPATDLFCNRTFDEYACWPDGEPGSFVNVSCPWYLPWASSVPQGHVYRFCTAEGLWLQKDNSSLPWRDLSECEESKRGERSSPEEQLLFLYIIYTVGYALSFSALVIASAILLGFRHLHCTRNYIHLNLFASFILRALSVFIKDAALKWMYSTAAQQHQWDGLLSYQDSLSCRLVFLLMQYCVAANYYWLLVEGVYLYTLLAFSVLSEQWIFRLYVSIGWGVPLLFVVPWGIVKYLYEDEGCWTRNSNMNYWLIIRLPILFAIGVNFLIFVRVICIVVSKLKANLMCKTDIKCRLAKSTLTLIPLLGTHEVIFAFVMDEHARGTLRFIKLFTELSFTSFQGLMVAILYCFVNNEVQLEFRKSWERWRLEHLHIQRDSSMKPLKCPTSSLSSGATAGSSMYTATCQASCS
# Assay: cell-based or functional assay
Starred links: 1 amine or outer side, 2 acyl side, 3 side chain; linkers in the order of their positions; H or OH if unused. Non-standard residues stand in square brackets, D forms with d. Groups on a side chain read outwards from the residue. No end group written: not given here. *: point of attachment. C20 diacid = O=C(O)CCCCCCCCCCCCCCCCCCC(=O)*; γGlu = O=C(O)[C@H](CCC(=O)[*:2])N[*:1]; αMeL = CC(C)C[C@](C)(N)C(=O)O; AEEA = NCCOCCOCC(=O)O; Aib = CC(C)(N)C(=O)O
Assignment: determine reported Relative cAMP EC50 for the given binders.
I'd appreciate it if you wrote the number followed by its unit.

The recorded Relative cAMP EC50 for entry Y[Aib]QGTFTSDYSI[αMeL]LDKIAAK([AEEA-AEEA-γGlu-C20 diacid])QFVEYLIAGGPSSGEPPPSEG-NH2 [Example 312] equals 2.66 nM

Value of measured Relative cAMP EC50 for the entry YXQGTFTSDXSRXLDKKAQXAFIEXLLEGGPSSGAPPPSGS (synthetic construct; SITE 2: note = 2-Aminoisobutyric Acid; SITE 10: note = 3-(4-Pyridyl)-L-alanine; SITE 13: note = alpha-methyl-leucine; SITE 17: note = Lysine is chemically modified through conjugation of the epsilon-amino group of the Lysine side chain with (2-[2-(2-Amino-ethoxy)-ethoxy]-acetyl)) [Example 909] : 1.72 nM

For YXQGTXTSDXXIXLDXKAQXNFIEXLQEGGPSSGEPPPEGTE (synthetic construct; SITE 2: note = 2-Aminoisobutyric Acid; SITE 6: note = alpha-methyl-2-fluoro-L-phenylalanine; SITE 10: note = 3-(4-Pyridyl)-L-alanine; SITE 11: note = alpha-methyl-L-serine; SITE 13: note = alpha-methyl-leucine; SITE 16: note = L-ornithine; SITE 17: note = Lysine is chemically mo) [Example 526] the binder record lists Relative cAMP EC50 as 0.421 nM

Sample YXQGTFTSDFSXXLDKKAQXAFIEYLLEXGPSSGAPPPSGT (synthetic construct; SITE 2: note = 2-Aminoisobutyric Acid; SITE 12: note = L-ornithine; SITE 13: note = alpha-methyl-leucine; SITE 17: note = Lysine is chemically modified through conjugation of the epsilon-amino group of the Lysine side chain with (gamma-Glu)-(2-[2-(2-Amino-ethoxy)-ethoxy]-acetyl)) [Example 276] ; Relative cAMP EC50 observed: 2.61 nM

For reference, reported Relative cAMP EC50 for YXQGTFTSDXSQXLDXKAQXQFIEXLIAXGPSSGEPPPSGSEE (non-natural residues; Lys acylated AEEA-γGlu-C18 diacid; C-terminal amide; synthetic construct; SITE 2: note = 2-Aminoisobutyric Acid; SITE 10: note = 3-(4-Pyridyl)-L-alanine; SITE 13: note = alpha-methyl-leucine; SITE 16: note = L-ornithine; SITE 17: note = Lysine is chemically modified through conjugation of the epsilon-amino group of the Lysine side chain with (2-[2-(2-) [Example 1100] stands at 0.514 nM

What the record says about YXQGTXTSDXXIXLDXKAQXXFIEXLLEGGPSSGEPPPE (synthetic construct; SITE 2: note = 2-Aminoisobutyric Acid; SITE 6: note = alpha-methyl-2-fluoro-L-phenylalanine; SITE 10: note = 3-(4-Pyridyl)-L-alanine; SITE 11: note = alpha-methyl-L-serine; SITE 13: note = alpha-methyl-leucine; SITE 16: note = L-ornithine; SITE 17: note = Lysine is chemically mo) [Example 377] : Relative cAMP EC50 is 0.367 nM

src = patent US20240270821A1
